Measured values drawn from patent US8853392B2 for this set.

molecular target: rat mGluR5 (Rattus norvegicus); construct: expressed in transfected cells; host or cells: human embryonic kidney (HEK) cells; assay: potentiation of mGluR5 response to glutamate, Ca2+ fluorescence (FDSS) in HEK cells transfected with rat mGluR5; assay type: cell-based; conditions: Table 1, EC50 for potentiating the mGluR5 receptor; unit inferred; read-out: EC50
Sequence (P31424 21-1203): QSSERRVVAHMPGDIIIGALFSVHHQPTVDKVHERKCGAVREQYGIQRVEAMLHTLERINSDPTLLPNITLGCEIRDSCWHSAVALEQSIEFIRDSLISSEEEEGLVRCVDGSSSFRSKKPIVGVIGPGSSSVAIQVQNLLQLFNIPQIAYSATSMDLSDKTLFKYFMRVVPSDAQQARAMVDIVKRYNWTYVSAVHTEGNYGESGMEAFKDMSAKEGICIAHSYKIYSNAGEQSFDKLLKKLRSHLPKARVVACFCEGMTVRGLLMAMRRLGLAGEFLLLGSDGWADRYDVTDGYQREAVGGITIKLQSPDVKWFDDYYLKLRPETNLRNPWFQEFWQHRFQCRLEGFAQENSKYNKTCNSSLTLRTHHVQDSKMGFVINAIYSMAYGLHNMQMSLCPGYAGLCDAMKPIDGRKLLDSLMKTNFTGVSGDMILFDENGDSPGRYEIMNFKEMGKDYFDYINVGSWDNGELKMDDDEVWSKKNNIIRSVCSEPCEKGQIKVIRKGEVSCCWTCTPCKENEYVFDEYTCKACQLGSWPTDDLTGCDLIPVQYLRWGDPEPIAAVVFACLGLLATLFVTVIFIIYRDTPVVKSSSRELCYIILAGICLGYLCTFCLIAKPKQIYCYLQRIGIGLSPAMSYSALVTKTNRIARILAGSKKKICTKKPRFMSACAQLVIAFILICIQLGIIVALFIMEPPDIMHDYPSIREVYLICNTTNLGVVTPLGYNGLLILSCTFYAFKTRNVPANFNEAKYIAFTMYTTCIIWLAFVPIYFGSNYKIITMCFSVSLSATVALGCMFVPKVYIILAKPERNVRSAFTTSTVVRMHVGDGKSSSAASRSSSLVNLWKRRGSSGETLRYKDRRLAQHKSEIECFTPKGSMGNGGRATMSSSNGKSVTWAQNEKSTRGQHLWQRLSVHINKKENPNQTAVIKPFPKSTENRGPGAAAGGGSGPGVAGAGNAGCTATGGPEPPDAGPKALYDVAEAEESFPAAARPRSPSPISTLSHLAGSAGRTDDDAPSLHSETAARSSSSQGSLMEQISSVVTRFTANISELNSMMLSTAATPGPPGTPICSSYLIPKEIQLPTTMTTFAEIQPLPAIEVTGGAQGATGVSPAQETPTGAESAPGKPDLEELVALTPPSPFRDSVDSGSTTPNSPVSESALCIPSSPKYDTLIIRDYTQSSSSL
Consider the following molecules; for each one, report its EC50.
Reply with the number and its unit after it.

(Q) Recall the recorded EC50 for O=C(c1ccc(C#Cc2ccccc2)cc1)N1CCCC(O)C1 (centres unmarked) with rat mGluR5 (Rattus norvegicus) and state it.
(A) 134 nM

(Q) Recall the recorded EC50 for O=C(c1ccc(C#Cc2ccccc2)cc1)N1CCC(NC2CCCCC2)CC1 with rat mGluR5 (Rattus norvegicus) and state it.
(A) 78 nM

(Q) Recall the recorded EC50 for O=C(c1ccc(C#Cc2ccc(F)c(F)c2)cc1)N1CCC(O)CC1 [Compound 19d] with rat mGluR5 (Rattus norvegicus) and state it.
(A) 73.9 nM

(Q) Recall the recorded EC50 for O=C(c1ccc(C#Cc2ccccc2)cc1)N1CCC(N2CCN(c3ccncc3)CC2)CC1 with rat mGluR5 (Rattus norvegicus) and state it.
(A) 113 nM

(Q) Recall the recorded EC50 for O=C(NCCC1=CCCCC1)c1ccc(C#Cc2ccccc2)cc1 with rat mGluR5 (Rattus norvegicus) and state it.
(A) 75.3 nM
